system.tested: T1, human pituitary adenylate cyclase-activating polypeptide type I receptor (human, UniProt P41586 21-468)
T1 construct: whole, on cells; On SH-SY5Y or recombinant CHO cells (cAMP assay), as membranes of hPAC-1 AequoScreen CHO cells (radioligand assay) and on CHOK1/huPac1 whole cells (KinExA); also called human PAC1; hPAC1
T1 sequence (looked up): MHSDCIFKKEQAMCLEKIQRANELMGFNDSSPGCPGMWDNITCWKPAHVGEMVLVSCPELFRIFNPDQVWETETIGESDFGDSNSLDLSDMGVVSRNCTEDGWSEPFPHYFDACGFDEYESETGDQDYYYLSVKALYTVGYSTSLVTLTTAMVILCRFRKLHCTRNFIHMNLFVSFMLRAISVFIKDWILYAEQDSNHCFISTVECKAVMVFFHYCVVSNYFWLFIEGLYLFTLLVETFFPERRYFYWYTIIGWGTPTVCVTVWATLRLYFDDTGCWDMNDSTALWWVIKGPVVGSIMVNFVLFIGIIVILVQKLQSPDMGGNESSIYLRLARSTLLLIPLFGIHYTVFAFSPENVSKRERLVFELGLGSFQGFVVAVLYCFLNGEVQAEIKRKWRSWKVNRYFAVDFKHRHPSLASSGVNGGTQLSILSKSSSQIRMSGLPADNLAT
test.description: radioligand competition, hPAC1 CHO membranes; competitor 125I-39A
property: Ki (nM)

binder="FTDSYSRYRKQMAVKKYLAAVLGKRYKQRVKNK (peptide, UniProt P18509 137-169, looked up, domain: PACAP 6-38) [PACAP 6-38]" property=Ki experimental_value=2.78
